assay: basal HepG2 mitochondrial membrane potential changes, profiling panel, cell-based, JC-1 fluorescence, 24 h, 100 nL compound (AID 1167); conditions: higher = more signal; also: test concentration not given here
value type: z-score

>>> recorded_result("COC(=O)CC=C[C@@H](C)[C@@H](C=NOCC[C@@H]1C=C[C@H](OC(C)=O)[C@@H](COC(C)=O)O1)NS(=O)(=O)c1ccc(C)cc1")
-0.716
>>> recorded_result("CCCNC(=O)OC[C@H]1O[C@H](CCON=Cc2ccc(C(=O)N3[C@H](c4ccc(C)cc4)[C@@H](C)CC[C@H]3C(=O)OC)cc2)C=C[C@@H]1Oc1ccc(OC)cc1")
2.75
>>> recorded_result("Cn1c(=O)n2n(c1=O)[C@H]1[C@H](O)[C@@H]3O[C@@H]3C(=NOCc3ccccc3)[C@H]1CC2")
-0.141
>>> recorded_result("CC(C)=CCCC(C)=CCON=C1C[C@@H](O)[C@@H](O)[C@@H]2[C@@H]3C(=O)N(C4CCCCC4)C(=O)[C@@H]3CC[C@@H]12")
-1.64
>>> recorded_result("C=CC1=C[C@H](O)[C@@H]2O[C@@H]2C12OCCCO2")
-0.977
>>> recorded_result("COc1ccc(O[C@H]2C=C[C@@H](c3ccccc3)O[C@@H]2CON=C(C)C)cc1")
-1.18
>>> recorded_result("C[C@@H](c1ccccc1)N1C(=O)[C@H]2[C@H]3[C@H](O)[C@H](O)CC(=NO[C@@H]4O[C@H](CO)[C@@H](O)[C@H](O)[C@H]4O)[C@H]3CC[C@H]2C1=O")
-0.364

* * *

experiment: yeast growth modulation, basal conditions, primary screen, YJM789 clinical isolate, OD600, 24 h (AID 1089);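 also: growth of clinical yeast isolate S. cerevisiae YJM 789 seeded 1000 cells per well; test concentration not given here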; settings: S. cerevisiae YJM789 growth, higher = more signal, called active from +8 up or from −8 down
value type: z-score

>>> recorded_result("O=C1[C@H]2[C@H]3[C@H](O)[C@H](O)CC(=NOC[C@@H](O)COCc4ccco4)[C@H]3CC[C@H]2C(=O)N1Cc1ccccc1")
-1.14
>>> recorded_result("CC(C)CON=C1C[C@@H](O)[C@@H](O)[C@@H]2[C@@H]3C(=O)N(c4cccc(Oc5ccccc5)c4)C(=O)[C@@H]3CC[C@@H]12")
-1.57
>>> recorded_result("Cc1ccc(S(=O)(=O)N[C@H]2COC(=O)CC=C[C@@H](C)COC(=O)CC=C[C@@H]2C)cc1")
0.611
>>> recorded_result("CC(C)[C@@H](OCc1ccccc1)[C@H](C)C=NOC[C@@H](O)COCc1ccco1")
-1.64

* * *

target: Torsin-1A-interacting protein 2 (Homo sapiens); test: LULL1 binders on small-molecule microarray, primary screen, cell lysate, human LULL1 lysate, 635/667 nm fluorescence (AID 1092); conditions: hLULL1 lysate binding, 635 nm fluorescence, higher = more signal;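 also: probe is lysate of COS7 cells overexpressing human LULL1; score merges per-feature 667 nm fluorescence with signal-to-noise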
Classes by composite z-score: low end: < -0.2; middle: ≥ -0.2 and < 0.9; high end: ≥ 0.9

>>> assigned_category("CO[C@H](C1CCCCC1)[C@H](C)C=CCC(=O)OCCCc1ccccc1")
"low end"
>>> assigned_category("CC(C)=CCCC(C)=CCON=C1C[C@@H](O)[C@@H](O)[C@@H]2[C@@H]3C(=O)N(c4ccc(F)cc4F)C(=O)[C@@H]3CC[C@@H]12")
"middle"
>>> assigned_category("O=C1CCCC=C1C(O)CCOC(c1ccccc1)(c1ccccc1)c1ccccc1 (stereo not given)")
"low end"
>>> assigned_category("CCOC(=O)[C@H](CC(C)C)NC(=O)CCC1CC(OC(=O)NCc2ccc3c(c2)OCO3)CC2(CCCC(COC(=O)NCC3CCCCC3)O2)O1 (stereo not given in full)")
"high end"
>>> assigned_category("CCc1cc2c(nc1CC)CCN(CCC(C)=NO[C@H](C)c1cn([C@H](CO)Cc3ccccc3)nn1)C2")
"middle"
>>> assigned_category("O=C(C=Cc1ccc2c(c1)OCO2)c1ccc(F)cc1")
"low end"
>>> assigned_category("CCC(=O)[C@@]1(O)C(=O)N2C(=C3C(=O)OCC[C@@H]31)N(Cc1ccccc1)C(C)=C(C(=O)OC)[C@H]2c1ccccc1")
"middle"
>>> assigned_category("C#CCCCON=C1C[C@@H](O)[C@@H](O)[C@@H]2[C@@H]3C(=O)N(c4ccc(F)cc4F)C(=O)[C@@H]3CC[C@H]12")
"high end"
>>> assigned_category("CC(C)=CCCC(C)=CCON=C1C[C@@H](O)[C@@H](O)[C@@H]2[C@@H]3C(=O)N(C(C)(C)C)C(=O)[C@@H]3CC[C@@H]12")
"middle"
>>> assigned_category("O=C1[C@H]2[C@H]3[C@H](O)[C@H](O)CC(=NOCc4ccccc4)[C@@H]3CC[C@H]2C(=O)N1C[C@@H]1CCCO1")
"middle"
>>> assigned_category("C=COC[C@@H]1CN2[C@@H](CC[C@@H](C)[C@@H]2c2ccc(Br)cc2)C(=O)O1")
"middle"
>>> assigned_category("COC(=O)CC=C[C@@H](C)[C@@H](C=NOC(C)CN1CCCc2nc(C)c(C)cc21)OC (stereo not given in full)")
"middle"
>>> assigned_category("CC(C)[C@@H](OCc1ccccc1)[C@H](C)C=NOC[C@@H](O)COCc1ccco1")
"low end"
>>> assigned_category("C#CCCCON=C1C[C@@H](O)[C@@H](O)[C@@H]2[C@@H]3C(=O)N(c4ccc(F)cc4F)C(=O)[C@@H]3CC[C@@H]12")
"low end"
>>> assigned_category("CO[C@H]1COC(=O)CC=C[C@H](C)COC(=O)[C@@H](C)NC(=O)CC=C[C@@H]1C")
"low end"
>>> assigned_category("COc1ccc(O[C@@H]2[C@H](O)CO[C@H]2C=Cc2ccccc2)cc1")
"middle"
>>> assigned_category("O=C(NN=C1C[C@@H](O)[C@@H](O)[C@@H]2[C@@H]3C(=O)N(Cc4ccccc4)C(=O)[C@@H]3CC[C@@H]12)OCc1ccccc1")
"low end"
>>> assigned_category("CCc1cc2c(nc1CC)CCN(CCC(C)=NOC[C@H]1O[C@H](c3ccccc3)C=C[C@@H]1Oc1ccc(OC)cc1)C2")
"middle"
>>> assigned_category("COc1ccc(O[C@H]2C=C[C@@H](c3ccccc3)O[C@@H]2CON=C(C)C)cc1")
"low end"
>>> assigned_category("CCOC(=O)NN=C1C[C@@H](O)[C@@H](O)[C@@H]2[C@@H]3C(=O)N(c4cccc(Oc5ccccc5)c4)C(=O)[C@@H]3CC[C@@H]12")
"high end"
>>> assigned_category("CO[C@H]1COC(=O)[C@@H](Cc2ccccc2)NC(=O)[C@@H](C)COC(=O)CCC[C@@H]1C")
"low end"
>>> assigned_category("CCOC(=O)NN=C1C[C@@H](O)[C@@H](O)[C@@H]2[C@@H]3C(=O)N(Cc4ccc5c(c4)OCO5)C(=O)[C@@H]3CC[C@H]12")
"high end"
>>> assigned_category("C[C@@H](c1ccccc1)N1C(=O)[C@H]2[C@H]3[C@H](O)[C@H](O)CC(=NOCc4ccccc4)[C@H]3CC[C@H]2C1=O")
"high end"
>>> assigned_category("CCc1cc2c(nc1CC)CCN(CCC(C)=NO[C@H](C)c1cn([C@@H]3COC[C@H]3O)nn1)C2")
"middle"
>>> assigned_category("C[C@H](ON=C1[C@H]2CCn3c(=O)n(-c4ccccc4)c(=O)n3[C@H]2[C@H](O)[C@@H]2O[C@H]12)c1cn([C@H](CO)Cc2ccccc2)nn1")
"middle"
>>> assigned_category("O=C1C[C@@H](O)[C@@H](O)[C@@H]2[C@@H]3C(=O)N(C[C@@H]4CCCO4)C(=O)[C@@H]3CC[C@@H]12")
"high end"
>>> assigned_category("CCOC(=O)[C@H](CC(C)C)NC(=O)CCC1CC(OC(=O)NCc2cccc3ccccc23)CC2(CCCC(COC(=O)NCC3CCCCC3)O2)O1 (stereo not given in full)")
"high end"
>>> assigned_category("CCOC(=O)[C@H](Cc1ccccc1)NC(=O)CCC1CC(OC(=O)NCc2cccc3ccccc23)CC2(CCCC(COC(=O)NCC(c3ccccc3)c3ccccc3)O2)O1 (stereo not given in full)")
"high end"
>>> assigned_category("CC(C)CON=C1C[C@@H](O)[C@@H](O)[C@@H]2[C@@H]3C(=O)N(C[C@@H]4CCCO4)C(=O)[C@@H]3CC[C@@H]12")
"high end"
